Target: WT-hCFTR (Homo sapiens)
Construct: expressed in transfected cells; host or cells: Xenopus laevis oocytes injected with cRNA (pGEMHE construct from Dr. D. Gadsby)
Assay: Two-electrode voltage clamp (TEVC) on wildtype hCFTR expressed in Xenopus oocytes
Type: cell-based
Settings: VM=−60 mV, ~50 s extracellular exposure, read-out: apparent Kd for block of hCFTR
pKd: −log10 of the molar value.
Observed property: pKd

{"Molecule": "Cc1ccc(NCC(=O)N/N=C/c2cc(Br)c(O)c(Br)c2O)cc1 [OSSK-3]", "Measured value": 4.48}

* * *

Target: WT-hCFTR (Homo sapiens, UniProt P13569)
Construct: expressed in transfected cells; host or cells: Xenopus laevis oocytes injected with cRNA (pGEMHE construct from Dr. D. Gadsby)
Sequence (P13569 whole entry): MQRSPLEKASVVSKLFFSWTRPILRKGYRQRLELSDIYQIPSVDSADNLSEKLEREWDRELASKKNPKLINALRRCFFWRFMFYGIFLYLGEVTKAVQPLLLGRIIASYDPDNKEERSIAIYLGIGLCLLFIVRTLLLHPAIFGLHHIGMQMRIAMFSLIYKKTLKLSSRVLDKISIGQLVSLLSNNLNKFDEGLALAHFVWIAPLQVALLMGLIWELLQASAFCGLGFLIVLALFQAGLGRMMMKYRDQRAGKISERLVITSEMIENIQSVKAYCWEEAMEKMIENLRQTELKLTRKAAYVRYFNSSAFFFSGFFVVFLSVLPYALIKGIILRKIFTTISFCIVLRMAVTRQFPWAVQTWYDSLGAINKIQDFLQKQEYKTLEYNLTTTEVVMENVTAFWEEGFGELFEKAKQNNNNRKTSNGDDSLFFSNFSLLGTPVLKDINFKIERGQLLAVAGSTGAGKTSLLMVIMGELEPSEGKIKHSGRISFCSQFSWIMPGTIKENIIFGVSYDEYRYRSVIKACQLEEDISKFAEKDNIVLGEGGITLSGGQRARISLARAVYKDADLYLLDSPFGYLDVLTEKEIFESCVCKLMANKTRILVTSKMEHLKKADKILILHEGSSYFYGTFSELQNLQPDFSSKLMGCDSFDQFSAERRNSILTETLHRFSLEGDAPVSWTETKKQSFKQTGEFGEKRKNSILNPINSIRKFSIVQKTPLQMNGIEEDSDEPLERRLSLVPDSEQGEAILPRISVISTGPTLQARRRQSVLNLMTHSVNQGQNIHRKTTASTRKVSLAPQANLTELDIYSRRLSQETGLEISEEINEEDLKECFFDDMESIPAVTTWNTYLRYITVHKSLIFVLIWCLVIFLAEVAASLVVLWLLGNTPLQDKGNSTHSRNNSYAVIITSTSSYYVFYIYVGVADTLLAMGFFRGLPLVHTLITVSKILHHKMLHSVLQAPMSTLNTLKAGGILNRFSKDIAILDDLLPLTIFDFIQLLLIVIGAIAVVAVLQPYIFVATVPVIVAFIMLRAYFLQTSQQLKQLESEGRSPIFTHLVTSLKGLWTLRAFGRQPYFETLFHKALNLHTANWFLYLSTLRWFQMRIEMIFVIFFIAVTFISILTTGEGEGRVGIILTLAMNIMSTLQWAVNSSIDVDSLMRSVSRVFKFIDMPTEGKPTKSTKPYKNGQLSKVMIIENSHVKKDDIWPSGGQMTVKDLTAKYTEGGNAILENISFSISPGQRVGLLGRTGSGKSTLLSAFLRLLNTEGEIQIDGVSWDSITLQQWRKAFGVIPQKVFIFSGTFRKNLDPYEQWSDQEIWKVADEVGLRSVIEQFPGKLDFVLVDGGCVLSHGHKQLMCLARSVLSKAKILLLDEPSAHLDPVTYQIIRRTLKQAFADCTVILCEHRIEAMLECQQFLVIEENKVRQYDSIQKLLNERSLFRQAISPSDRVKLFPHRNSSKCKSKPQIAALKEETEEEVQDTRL
Assay: Two-electrode voltage clamp (TEVC) on wildtype hCFTR expressed in Xenopus oocytes
Assay type: cell-based
Settings: VM=−60 mV, ~50 s extracellular exposure, read-out: apparent Kd for potentiation of hCFTR
Observed property: Kd

{"Compound": "Cc1ccc(NCC(=O)N/N=C/c2cc(Br)c(O)c(Br)c2O)cc1 [OSSK-3]", "Measurement target": "WT-hCFTR (Homo sapiens, UniProt P13569)", "Measured value": "31.7 nM"}
